inhibition values by entry
assay: inhibitors of PGC1a acetylation signal, primary screen, cell-based, U2OS, AlphaScreen, inhibitor mode (AID 651687); settings: AlphaScreen anti-acetyl-lysine, at 15.6 µM, hits give high values, with virally co-expressed GCN5 acetyltransferase;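 further: 0% = neutral control wells and 100% = positive control wells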
Among all 350,000 compounds or so, about 600 (0.17%) were called active. The sample holds actives, similar compounds and a random draw of the others, so the mix is not that of the screen.
quantity: inhibition (%)

In [3]: df
Out[3]:
                           smiles_structure    quantity  obs_value
0  CCCNC(=O)C[C@H]1CC[C@@H]2[C@H](COC[C@H](O)CN2CC2CCCCC2)O1  inhibition       -2.1
1  COCC(=O)N1CC(=O)N2[C@H](C1)[C@@H](c1ccc(C#Cc3cccc(OC)c3)cc1)[C@@H]2CO  inhibition     -0.955
2  COc1ccc(S(=O)(=O)N(C)C[C@@H]2Oc3ccc(NC(=O)Cc4cn(C)c5ccccc45)cc3C(=O)N([C@H](C)CO)C[C@H]2C)cc1  inhibition      -8.14
3   O=C(N/N=C\c1cc2c(cc1Cl)OCO2)c1ccc(Br)s1  inhibition      -10.7
4  C/C(Cc1ccccc1)=N\NC(=O)CNC(=O)c1ccccc1Cl  inhibition       5.72
5  O=C(c1cccnc1)N1C[C@H]2[C@@H](c3ccccc31)[C@H](CO)N2C(=O)C1CC1  inhibition       8.96
6  O=C(Nc1ccc2ccccc2c1[N+](=O)[O-])c1ccccc1  inhibition         14
7  CNC[C@H]1Oc2ccc(NS(=O)(=O)c3ccc(F)cc3)cc2CC(=O)N([C@H](C)CO)C[C@H]1C  inhibition      -12.8
8      CC/C(=N\NC(=O)c1ccccc1Cl)c1ccc(Br)s1  inhibition       82.8

* * *

test: inhibitors of PGC1a acetylation signal, primary screen, cell-based, U2OS, AlphaScreen, inhibitor mode (AID 651687); conditions: AlphaScreen anti-acetyl-lysine, at 15.6 µM, hits give high values, with virally co-expressed GCN5 acetyltransferase;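 further: 0% = neutral control wells and 100% = positive control wells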
Hit rate of the full screen: of about 350,000 compounds, about 600 (0.17%) were called active. The full list was thinned out, with actives kept by preference.
inhibition values by entry
quantity: inhibition (%)

>>> print(df.to_string())
                                    compound    quantity  uom  obs_value
 0  C[C@H]1CN([C@@H](C)CO)C(=O)c2cccc(NC(=O)Nc3ccccc3)c2O[C@H]1CN(C)S(=O)(=O)c1ccc(F)cc1  inhibition    %      -3.23
 1  CCNC(=O)Nc1ccc2c(c1)C(=O)N(C)[C@@H]1CC[C@@H](CC(=O)NC3CCCCC3)O[C@H]1CO2  inhibition    %       1.93
 2  C[C@@H]1CN([C@@H](C)CO)C(=O)c2cc(NS(C)(=O)=O)ccc2O[C@H]1CN(C)C(=O)Nc1ccc(F)cc1  inhibition    %      0.678
 3  CCNC(=O)C[C@@H]1CC[C@@H]2[C@@H](COc3ccc(NC(=O)Nc4ccccc4F)cc3C(=O)N2C)O1  inhibition    %       2.36
 4  O=C(CC1CC1)N1CC[C@@H]2[C@@H](CO)Nc3ccc(-c4ccccc4)cc3[C@@H]21  inhibition    %      -14.4
 5  COCCCNC(=O)[C@@]1(Cc2ccccc2)COC(c2ccc(OCCCO)cc2)=N1  inhibition    %       4.46
 6  O=C(CC(F)(F)F)N1C[C@H]2[C@@H](c3ccccc31)[C@H](CO)N2C(=O)Cc1ccccc1  inhibition    %        9.3
 7  Cc1nc(=O)c(-c2ccccc2)c(C)n1-c1ccc(Br)cc1  inhibition    %      -2.67
 8  C[C@@H]1CCCCO[C@@H](CN(C)C(=O)CCCN(C)C)[C@H](C)CN([C@@H](C)CO)C(=O)c2cc(NC(=O)Nc3ccccc3)ccc2O1  inhibition    %         20
 9  COc1ccccc1S(=O)(=O)N[C@@H]1C=C[C@H](CC(=O)N2CCN(C)CC2)O[C@@H]1CO  inhibition    %       6.82
10  Cc1cc2c(c(=O)n1C)C(C(C)C)C(C#N)=C(N)O2 (centres undefined)  inhibition    %       8.23
11  CO[C@H](C(=O)N(C)C[C@@H]1OCc2ccccc2-c2c(n(C)c3ccccc23)C(=O)N([C@@H](C)CO)C[C@H]1C)c1ccccc1  inhibition    %      -1.42
12  C[C@@H]1CN([C@@H](C)CO)S(=O)(=O)c2ccc(-c3cccc(F)c3)cc2O[C@@H]1CN(C)S(=O)(=O)c1ccccc1  inhibition    %       5.85
13  CCCN(C)C[C@H]1Oc2ncc(-c3ccccc3OC)cc2C(=O)N([C@H](C)CO)C[C@H]1C  inhibition    %       7.87
14  CC(C)CC#Cc1ccc2c(c1)O[C@H](CN(C)C(=O)C1CC1)[C@@H](C)CN([C@@H](C)CO)S2(=O)=O  inhibition    %       3.73
15         S=C1NC(c2ccccc2)=NCN1c1ccc(Br)cc1  inhibition    %       80.9
16  Cc1noc(C)c1NC(=O)Nc1ccc2c(c1)C(=O)N([C@@H](C)CO)C[C@H](C)[C@@H](CN(C)C(=O)Nc1ccccc1)O2  inhibition    %      -6.84
17  O=C(C1CCCC1)N1CC(=O)N2[C@H](CO)[C@H](c3ccc(Br)cc3)[C@@H]2C1  inhibition    %         -9
18  O=C(Nc1ccc2c(c1)[C@@H]1C[C@H](CC(=O)N3CCOCC3)O[C@@H](CO)[C@@H]1O2)C1CCOCC1  inhibition    %      -6.68
19  CO[C@@H]1CN(C)C(=O)c2cc(NC(=O)c3ccccc3F)ccc2OC[C@H](C)NC[C@@H]1C  inhibition    %      -5.95
20  CN(C)C(=O)c1ccc(-c2ccc(C3[C@@H]4CN(C(=O)Nc5ccccc5)C[C@H]3N4)cc2)cc1 (some centres undefined)  inhibition    %      -6.33
21  C[C@@H]1CN([C@H](C)CO)C(=O)c2cc(NC(=O)Nc3ccc(F)cc3)ccc2O[C@@H](C)CCCCO[C@@H]1CN(C)S(=O)(=O)c1cn(C)cn1  inhibition    %       -2.5
22  N#Cc1ccc(-c2ccc3c(c2)[C@H]2[C@H](CCN2Cc2ccc4c(c2)OCO4)[C@@H](CO)N3)cc1  inhibition    %         -7
23       O=C(Nn1cnnc1)c1ccc([N+](=O)[O-])cc1  inhibition    %      -2.58
24  Cc1noc(C)c1NC(=O)Nc1ccc2c(c1)C(=O)N([C@H](C)CO)C[C@@H](C)[C@@H](CN(C)S(=O)(=O)c1ccc(Cl)cc1)OCCCC[C@H](C)O2  inhibition    %      0.953
25  N#Cc1ccc(-c2ccc([C@@H]3[C@H]4CNC[C@@H]3N4Cc3ccc4c(c3)OCO4)cc2)cc1  inhibition    %       48.1
26           N[C@@H](Cc1ccccc1)C(=O)N1CCOCC1  inhibition    %      -8.48
27  COc1ccc(S(=O)(=O)N(C)C[C@H]2OCCCC[C@@H](C)Oc3ccc(NS(=O)(=O)c4ccc(C)cc4)cc3C(=O)N([C@@H](C)CO)C[C@@H]2C)cc1  inhibition    %       0.06
28  N#C[C@H]1[C@H](c2ccc(-c3cccc(F)c3)cc2)[C@@H](CO)N1C(=O)NC1CCCC1  inhibition    %       4.29
29               NC(=NC(=O)c1ccccc1)N1CCOCC1  inhibition    %       84.1
30  COc1cccc(-c2cn(CC[C@@H]3CC[C@@H](NC(C)=O)[C@@H](CO)O3)nn2)c1  inhibition    %       22.5
31  C/C(=C\c1ccccc1)C1NC(=O)c2c(sc3c2CCCC3)N1 (centres undefined)  inhibition    %       6.29
32  Cn1c2c(c(=O)n(C)c1=O)C(c1cccc(F)c1)C(C#N)=C(N)O2 (centres undefined)  inhibition    %       80.9
33  O=C(C[C@H]1C[C@@H]2c3cc(NC(=O)c4ccc5c(c4)OCO5)ccc3O[C@@H]2[C@@H](CO)O1)NCc1cccnc1  inhibition    %      -3.47

* * *

inhibition values by entry
experiment: inhibitors of PGC1a acetylation signal, primary screen, cell-based, U2OS, AlphaScreen, inhibitor mode (AID 651687); conditions: AlphaScreen anti-acetyl-lysine, at 15.6 µM, hits give high values, with virally co-expressed GCN5 acetyltransferase;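 further: 0% = neutral control wells and 100% = positive control wells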
The campaign covered roughly 350,000 compounds. About 600 (0.17%) were called active. Shown is part of a subset that was picked to be rich in actives.
quantity: inhibition (%)

                                   compound  uom  obs_value
0  CCOC(=O)c1ccc2[nH]c3c(c2c1)CCCC3NC=O (centres undefined)    %          5
1  C[C@@H]1CN([C@H](C)CO)C(=O)c2cc(C#Cc3cccc(F)c3)cnc2O[C@H]1CN(C)Cc1ccccn1    %      -11.1
2  O=C(C[C@H]1C=C[C@H](NC(=O)c2cnccn2)[C@@H](CO)O1)NCc1ccccc1F    %      -5.81
3  Cc1nc2ccccc2c(=O)n1NC(=O)c1ccc(Cl)c([N+](=O)[O-])c1    %       44.8
4  C[C@@H]1CN([C@@H](C)CO)C(=O)c2cc(NC(=O)c3ccncc3)ccc2O[C@@H]1CN(C)S(C)(=O)=O    %       6.79
5  O=C(O)c1ccc2c(=O)n3c(nc2c1)/C(=C/c1ccc(Cl)c([N+](=O)[O-])c1)CC3    %       12.5
6  CCOC(=O)c1ccc2[nH]c(C)c(CN3CCN(C)CC3)c(=O)c2c1    %       59.3
7  Cc1ccnc(NC(=O)c2ccc(Cl)c([N+](=O)[O-])c2)c1    %          3
8  C[C@H]1CN([C@@H](C)CO)C(=O)c2cc(-c3ccc(C#N)cc3)cnc2O[C@@H]1CN(C)Cc1ccncc1    %      -4.55
